Tested on: MS2 coat protein
Test: apparent KD of MS2 coat protein; designed switch direction (-1 OFF switch, 1 ON switch): -1; higher = weaker reporter binding
Settings: Eterna round: R95; input ligand: none
# apparent KD of MS2 coat protein annotations

ORDERED RESIDUES	UNIT SPEC	apparent KD of MS2 coat protein
CUAGUCCGAGGAUAUAUUAUGUGAAACAUGAGGAUCACCCAUGUAAUAUGAUGGAAAUAAAUAGAAGGCGGACUAG [Mat - Exclusion 5 - JL mod - D33] (puzzle: Exclusion 5)	nM	30.2
GCAGGCGUCUUGGCUCGUCUUAUUUGGAGAGGAUUGAUAACAUGAGGAUCACCCAUGUGUGUGGGAGAGUUGCAGUG [JR_SV3TOV2_Sub017] (puzzle: Sensor v3, turn-off variant 2)	nM	374
GGAAAGGUAGGAUAUACGAAGAAAAAGGGUAGAAUAAUAACACAUGAGGAUCACCCAUGUAGAAGGACCAAAGG [Mat - Exclusion 2 - Mod of my Tesla design - D6] (puzzle: Exclusion 2)	nM	19.3
GAAGAACAUGAGGAUCACCCAUGUGAGGAUAUGAAAAAGAAAAGAAAAGAAAGAAGAAUCAGAAGGCACAAAGG [Mat - Mod of Hog D2] (puzzle: Exclusion 1)	nM	38.3
CGAGUGUAAGGAUAUUCGGCGCCAGAGAACGAUCUGACGUAGAAGAAGGUACAUGAGGAUCACCCAUGUGGUUA [Geinzarace] (puzzle: Exclusion 4)	nM	204
CUGAGGUAGCGGUCCUAUGACAUGAGGAUCACCCAUGUACCUUGCUUUGAGCUUUUAGCUCGUCUUAUGAUUCUCGG [Mat - Sensor v3 - turn-off var 1 - JL Mod - D43] (puzzle: Sensor v3, turn-off variant 1)	nM	446
AAUAGCAAGCAGAUCCUAAACAUGAGGAUCACCCAUGUGCUCGUCUUGUAAAGUACUAUCACGAAAGUGAUAGUACA [Sensor 3, v1 - 61] (puzzle: Sensor v3, turn-off variant 1)	nM	88.3
UAAUAACAAGCGAGAUCCUACAUGAGGAUCACCCAUGUGCUCGUCUUAUAAAGUACUAUCACGAAAGUGAUAGUACA [Mat - Sensor v3 - turn-off var 1 - Eli Mod - D61] (puzzle: Sensor v3, turn-off variant 1)	nM	19.2
AAAUAAUAGAUAAAAUAAAACAUGAGGAUCACCCAUGUGGGAUGUUGAGGGUGAUACAAGCUUUUUGCUCGUCUUAU (puzzle: Sensor v3, turn-off variant 1)	nM	271
